# protocol.notes: chemical genetic growth profiling, strain panel (AID 1159580);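 also: tested at 20 µM; growth read once vehicle control cultures reached saturation at 30 °C; 1 = growth at the plate median or of vehicle wells; lower values mean less growth of the strain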
# condition.notes: S. cerevisiae deletion strains, growth OD, locus YHR129C, strain ARP1, stronger effect = lower value
The campaign covered roughly 5,500 compounds. About 2,000 (36%) were called active. About 18% were inconclusive and are not listed. This is one part of the list. Where a SMILES comes first, the peptide text is derived from it. The star is where a group is joined. For = O=C*

>  <molecule>
CC(=O)O[C@H]1CC[C@@]2(C)C(CC[C@]3(C)C2CC=C2C4CC(C)(C)CC[C@]4(C)CC[C@]23C)C1(C)C (some centres undefined)

>  <normalized growth>
1.01

$$$$
>  <molecule>
CSCCC(NC=O)C(=O)NC(Cc1ccccc1)C(=O)O (stereo not drawn) (For-Met-Phe-OH; configuration not given here)

>  <normalized growth>
1

$$$$
>  <molecule>
CC(=O)/C=C\[C@@H]1[C@@]2(C)CCCC(C)(C)C2CC[C@@]1(C)O (some centres undefined)

>  <normalized growth>
0.975

$$$$
>  <molecule>
CC(=O)O[C@@H]1CC[C@@]2(C)C(CC[C@]3(C)C2CC=C2C4CC(C)(C)CC[C@]4(C(=O)O)CC[C@]23C)C1(C)C (some centres undefined)

>  <normalized growth>
0.995

$$$$
>  <molecule>
CC1C(=O)OC2C1CCC1(C)C=CC(=O)C3(C)OC213 (centres undefined)

>  <normalized growth>
1.02

$$$$
>  <molecule>
C[C@@H]1C(=O)O[C@H]2[C@H]1CC[C@@]1(C)C=CC(=O)[C@@]3(C)O[C@@]213

>  <normalized growth>
1.01

$$$$
>  <molecule>
N#CC(O[C@@H]1O[C@H](CO[C@@H]2O[C@H](CO)[C@@H](O)[C@H](O)[C@H]2O)[C@@H](O)[C@H](O)[C@H]1O)c1ccccc1 (some centres undefined)

>  <normalized growth>
1

$$$$
>  <molecule>
CC(C)(Sc1cc(C(C)(C)C)c(O)c(C(C)(C)C)c1)Sc1cc(C(C)(C)C)c(O)c(C(C)(C)C)c1

>  <normalized growth>
1.01

$$$$
>  <molecule>
O=C1C(O)=C(O)C(=O)C(O)=C1O

>  <normalized growth>
0.994

$$$$
>  <molecule>
CC(=O)OC1CC(OC(C)=O)C2(C)C(CC(OC(C)=O)C3(C)C4=CC(=O)OC(=O)C4(C)CCC32)C1(C)C (centres undefined)

>  <normalized growth>
1.01

$$$$
>  <molecule>
Nc1ccccc1C(=O)CC(N)C(=O)O (centres undefined)

>  <normalized growth>
1.01

$$$$
>  <molecule>
CCC(C)C(=O)O[C@H]1[C@H](O)C2C(CN3CC(C)CCC3[C@@]2(C)O)C2C[C@]34O[C@]5(O)C(OC(=O)C(C)(O)CC)CC[C@@]3(C)C5C(OC(C)=O)[C@@H](OC(C)=O)C4[C@@]21O (some centres undefined)

>  <normalized growth>
1.01

$$$$
>  <molecule>
CO[C@@]12[C@@H]3NC3CN1C1=C(C(=O)C(N)=C(C)C1=O)[C@@H]2COC(N)=O (some centres undefined)

>  <normalized growth>
1

$$$$
>  <molecule>
COC(=O)C[C@H]1C(C)(C)C(=O)[C@@H]2CC3C4=CC(=O)O[C@@H](c5ccoc5)[C@]4(C)CCC3[C@@]1(C)C2=O (some centres undefined)

>  <normalized growth>
0.987

$$$$
